Source of measurements: patent US20250179047A1

tested-target: BCL2 F104I (Homo sapiens, UniProt P10415, F104I)
assay-explanation: TR-FRET competitive binding assay, BCL2 F104I
assay-context: Ki determined from IC50, read-out: TR_FRET EKI_Bcl2 F104I
readout-label: Ki (pM)

Some solved entries appear below for comparison.
query-smiles: Cc1c(N(C(=O)c2cc(-c3cc4c(cc3C(=O)N3Cc5ccccc5C[C@H]3CN3CCCCC3)CN(C(=O)Cc3ccc(OCCN(C)C5COC5)cc3F)CC4)n(C)c2C)c2ccc(O)cc2)cc(C#N)n1C
tested-target: BCL2 F104I (Homo sapiens, UniProt P10415, F104I)
unit: pM
reported-result: 220
//
query-smiles: Cc1c(N(C(=O)c2cc(-c3cc4c(cc3C(=O)N3Cc5ccccc5C[C@H]3C)CN(C(=O)Cc3ccc(C5CCN(CCF)CC5)c(F)c3)CC4)n(C)c2C)c2ccc(O)cc2)cc(C#N)n1C
tested-target: BCL2 F104I (Homo sapiens, UniProt P10415, F104I)
unit: pM
reported-result: 6470
//
query-smiles: Cc1c(N(C(=O)c2cc(-c3cc4c(cc3C(=O)N3Cc5ccccc5C[C@H]3CN(C)C(C)C)CN(C(=O)Cc3ccc(OCCN5CCOCC5)cc3F)CC4)n(C)c2C)c2ccc(O)cc2)cc(C#N)n1C
tested-target: BCL2 F104I (Homo sapiens, UniProt P10415, F104I)
unit: pM
reported-result: 250

1: Cc1c(N(C(=O)c2cc(-c3cc4c(cc3C(=O)N3Cc5ccccc5C[C@H]3CN3CCCCC3)CN(C(=O)Cc3ccc(OCCC5CCOCC5)cc3)CC4)n(C)c2C)c2ccc(O)cc2)cc(C#N)n1C
2: Cc1c(C(=O)N(c2ccc(O)cc2)c2cnn(C(F)F)c2)cc(-c2cc3c(cc2C(=O)N2Cc4ccccc4C[C@H]2C)CN(C(=O)Cc2ccc(OCCN4CCOCC4)cc2)CC3)n1C
Lab note: record which item had the higher Ki, 1 or 2 . Mark your answer with the label of the selected entry. 2
(2: 1600 pM, 1: 470 pM)
